Hello, the source for this data is patent US20190225692A1, in case you need it.

# Target Or Test System: T1, HLA-A2/E7 (11-19) tetramer (human; HPV 16)
# T1 construct: also called E7(11-19) peptide-MHC tetramer; E7 (11-19)-loaded tetramer
# Assay Details: tetramer flow cytometry; transfected 1:1 CD4+ and CD4+/CD8+ Jurkat-derived cells;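 also: cells transiently transfected with TCR plasmids, stained 48 h later with HLA-A*02:01 peptide-MHC tetramer plus anti-CD8 antibody, read by flow cytometry to assess CD8-independent tetramer binding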
Measured % cells in E7 tet+/CD8+ quadrant by item
Measured Attribute: % cells in E7 tet+/CD8+ quadrant (%)

1. TCR 50 (codon optimized, cysteine modified version) (TCR, V domains shown) V domain 1: GEDVEQSLFLSVREGDSSVINCTYTDSSSTYLYWYKQEPGAGLQLLTYIFSNMDMKQDQRLTVLLNKKDKHLSLRIADTQTGDSAIYFCAESPPGTYKYIFGTGTRLKVLA V domain 2: DSGVTQTPKHLITATGQRVTLRCSPRSGDLSVYWYQQSLDQGLQFLIHYYNGEERAKGNILERFSAQQFPDLHSELNLSSLELGDSALYFCASSATRDAYGYTFGSGTRLTVVE ... 3.28
2. TCR 40 (codon optimized, cysteine modified version) (TCR, V domains shown) V domain 1: GQQVMQIPQYQHVQEGEDFTTYCNSSTTLSNIQWYKQRPGGHPVFLIQLVKSGEVKKQKRLTFQFGEAKKNSSLHITATQTTDVGTYFCAGRNNFNKFYFGSGTKLNVKP V domain 2: EPEVTQTPSHQVTQMGQEVILRCVPISNHLYFYWYRQILGQKVEFLVSFYNNEISEKSEIFDDQFSVERPDGSNFTLKIRSTKLEDSAMYFCAITARSSYEQYFGPGTRLTVTE ... 7.84
3. TCR 53 (codon optimized, cysteine modified version) (TCR, V domains shown) V domain 1: AQSVAQPEDQVNVAEGNPLTVKCTYSVSGNPYLFWYVQYPNRGLQFLLKYITGDNLVKGSYGFEAEFNKSQTSFHLKKPSALVSDSALYFCAVRDFGSGTYKYIFG V domain 2: GAGVSQSPRYKVTKRGQDVALRCDPISGHVSLYWYRQALGQGPEFLTYFNYEAQQDKSGLPNDRFSAERPEGSISTLTIQRTEQRDSAMYRCASSGSGTSGYNEQFFGPGTRLTVLE ... 3.35
